targetUnderTest: T1, human Claudin18.2 (CLDN18.2) (human, UniProt P56856 1-261)
T1 construct: the cell line is named under assay; also called human Claudine18.2; hClaudin18.2
protocolText: FACS on GAXC031 cells
assayEndpoint: pEC50
Note on units: pEC50 is unitless, being -log10 of a concentration expressed in mol/L.

INSERT INTO assay_data (binder, reported) VALUES
  ('chAb20 (antibody, V domains shown) VH: EVMLVESGGGLVKPGGSLKLSCVASGFTFSSYTMSWVRQTPEKRLEWVATIIGGYGNTYYSDSVKGRITISRDSAKNTLYLQMISLRSEDTALYYCTRLGQTQRNAMDYWGQGTSVTVSS VL: DILMTQSPSSLSVSAGEKVTMNCKSSQSLLNSGNQKNYLAWYQQKPGQPPKLLIYGASTRESGVPDRFTGSGSGTDFTLTISSVQAEDLAVYYCQNDYYYPFTFGAGTKLEL', 7.37);

Please turn your attention to the following entry.
## Input Return pEC50 for the following binder: chAb05 (antibody, V domains shown) VH: DVKLVESGEDLVKPGGSLKLSCAASGFTFSNYAMSWVRQTPEKRLEWVAYVSSGGDYIYYADTVKGRFIISRDNARNTLYLQMNSLRSEDTAMYYCARVYFGNSLDYWGQGTTLTVSS VL: DIVMTQSPSSLTVTAGEKVTLSCKSSQSLLNGGNQKNYLTWYQQRPGQPPKLLIYWASTRESGVPDRFTGSGSGTDFTLIISSVQAEDLAVYYCQNDYYYPWTFGGGTKLEIK
## Output 7.13
